Source listed as PubChem BioAssay (NCI).

Listed next: entries and their corresponding growth.
# Test system: T-47D breast
# Assay procedure: NCI-60 one-dose screen, 48 h (100 = growth as untreated, 0 = no growth, -100 = all killed)
# Recorded conditions: 10 µM unless noted
The panel holds about 83,000 compounds, 20% with a hit somewhere; the sample as a whole holds those more often.

Molecule	System	growth [%]
Cc1ncc(C(=O)Nc2ccc(CN3CCN(C)CC3)c(C(F)(F)F)c2)cc1C#Cc1ccc(N)nc1	T-47D breast	18.6
O=C1c2ccccc2NC(n2sc3ccccc3c2=O)N1c1ccccc1 (stereo not given)	T-47D breast	96.4
COc1cc(C(=O)/C=C/c2sc(Cl)nc2Cl)cc(OC)c1OC	T-47D breast	28.2
CC(=O)OC[C@H]1OC(Sc2sc(C(=O)c3ccc(Cl)cc3)c(N)c2-c2nc3ccccc3s2)[C@H](OC(C)=O)[C@@H](OC(C)=O)[C@@H]1OC(C)=O (stereo not given in full)	T-47D breast	89.5
O=c1c2cc(F)ccc2sc2c(NCCO)nc3ccccc3c12	T-47D breast	93.1
